testTarget: D-Ala-D-Ala ligase (Escherichia coli)
test: Affinity for D-Ala-D-Ala ligase relative to ATP (method not given)
Assay type: binding
measurementSetup: given in brackets after ATP
valueType: pKd
Formally, pKd is defined as -log10 of the concentration c, with c in mol/L.

INPUT: pKd of Nc1ncnc2c1ncn2[C@@H]1O[C@H](COP(=O)(O)OP(=O)(O)OP(=O)(O)O)[C@@H](O)[C@H]1O [ATP, adenosine triphosphate] on D-Ala-D-Ala ligase (Escherichia coli)?
OUTPUT: 3.52

* * *

testTarget: D-Ala-D-Ala ligase (Escherichia coli)
pIC50: −log10 of the molar value.
valueType: pIC50

INPUT: Name the reported pIC50 value associated with the molecule `N[C@@H]1CON=C1O`
OUTPUT: ~3.82

* * *

testTarget: UniProtKB P07862
test: Stopped flow fluorescence quenching studies of nucleotide binding to ligase
measurementSetup: stopped flow, 4° C.; partially closed complex; product of Kd1 and Kd2; read-out: final (overall) Kd
valueType: pKd
Note on pKd: it is the negative log10 of concentration, concentration in mol/L.

INPUT: pKd for Nc1ncnc2c1ncn2[C@@H]1O[C@H](COP(=O)(O)OP(=O)(O)OP(=O)(O)O)[C@@H](O)[C@H]1O [ATP, adenosine triphosphate] ?
OUTPUT: 3.80

INPUT: Please give the result for `Nc1ncnc2c1ncn2[C@@H]1O[C@H](COP(=O)(O)OP(=O)(O)O)[C@@H](O)[C@H]1O` too.
OUTPUT: 4.30

# credit: patent US20030119061A1
